test: CellTiter96 (MTS) in vitro cytotoxicity assay; format: cell-based; details: mouse, AML-12 liver cells; read-out: LD50 (the source's name)
test_readout: CC50 (nM)
Use nM as the unit, but write only the number.

Which CC50 reading was recorded for the compound C/C=C1\NC(=O)[C@H](Cc2ccccc2)NC(=O)[C@@H](C(C)C)NC(=O)[C@@H](C(C)CC)NC(=O)[C@H](NC(=O)C(NC(=O)[C@H](CCCN)NC(=O)[C@H]2CCCN2C(=O)[C@H](NC(=O)[C@@H](NC(=O)[C@@H](NC(=O)[C@H](NC(=O)CCCC(C)C)C(C)C)C(C)O)C(C)C)C(C)C)C(C)CC)C(C)OC(=O)[C@H](C(C)C)NC1=O (single isomer, unassigned) [Kahalalide F, kahalalide F] ? 170

This collection of values is drawn from patent US7473681B2.
